Catalogue of binders with associated IC50
molecular target: HLA A3002 (human); experiment: 125I-probe competition, purified HLA

binder	IC50 (nM)
VYQFAFKDL (modifications not checked) [HPV45.E6.44]	165
VMDDSEIAY (modifications not checked) [HPV31.E1.349]	2550
ATCVSHRGLY (modifications not checked) [HPV18.E2.154]	28
VYGTTLEKL (modifications not checked) [HPV31.E6.83]	1240
NTGILTVTY (modifications not checked) [HPV45.E2.332]	8720
FYSKVSEFRW (modifications not checked) [HPV31.E6.69]	1360
LSSALEIPY (modifications not checked) [HPV31.E6.15]	175
STDLRDHIDY (modifications not checked) [HPV16.E2.23]	17

Source of measurements: patent US20100272750A1
